assay: protein stability index of a GFP-peptide fusion (yeast GPS) (PSI 1-4); higher = more stable; sorted into four equal gates, so the index is relative within each strain
testContext: ubr1∆
quantityName: protein stability index
Give bare numbers.

// solved cases for protein stability index follow
INSERT INTO assay_data (sequencechain, quantitativeresult) VALUES
  ('LPELWALLNFVLPKIFN [SNF2]', 1.51),
  ('KAFEERHQAGKNQWFFS [RPL27A]', 3.03);

Field: protein stability index. Fill in for each record below.
1. GSSALADNKEDVKKPFS [YLR335W/NUP2]
2. QHDSSANEDEEEQLDAL [CSN12]
3. AELQSNLQVELLSEHDD [YGL100W/SEH1]
4. EPLAPGNDNLIKAPTVA [YLR335W/NUP2]
5. TLSFNFSQKANKTKAVD [YOR098C/NUP1]
6. AMFEICLKRGWGHPTRM [BRR2]

output:
1. 3.21
2. 3
3. 2.87
4. 2.88
5. 1.71
6. 2.96

Items follow; give protein stability index for each.
1. GDTVQFAEYIQANIQLY [PRE1]
2. RITDASLFQLSKLGKNL [GRR1]
3. IDSSNLPLQAQQQLYGG [SWI1]
4. VTYTEHAKRKTVTSLDV [HHF1]
5. LKVQKLSRPSLPKIKTV [RPL35A]
6. LYRYRFDPFQAVSRSMT [ECM29]
7. ENSANSTVASALDTNGT [SIR4]

output:
2.04
2.51
2.87
2.68
3.17
2.74
2.86

# batch: return protein stability index for each of the 6 sequences below
1. KLLKEKVKLFHGILDDL [MED2]
2. GTAGGNTFGSSSLFNNS [YJL041W/NSP1]
3. EPIKVNVRVGQAVETVG [RPN1]
4. ISKDCSAFACKTDEVII [BRR2]
5. HSNLEKISNSKLLSLLR [SIR4]
6. ANVEILAVEDKPSPIDS [CSL4]

output:
1: 2.97; 2: 3.21; 3: 2.44; 4: 2.88; 5: 2.48; 6: 3.12

For every item below, please supply its protein stability index.
1. MAVGKNKRLSKGKKGQK [RPS1A]
2. LPPPPPPPGLDELETKA [PRP8]

output:
1. 1.45
2. 3.17
